Attribution: PubChem BioAssay (NCATS)

Experimental details: Quantitative High-Throughput drug screen in 47 multiple myeloma cell lines against the NCATS MIPE library collection: MM1R_ATCC cell viability assay (AID 1918981); further: nearly all actives have a fitted effect of over 35% in size
Experimental setup: MM1R multiple myeloma cells, CellTiter-Glo viability, 48 h; series mostly up to 45.8 µM
Source text: PI: Beverly A. Mock Ph.D. Laboratory of Cancer Biology and Genetics, Center for Cancer Research, National Cancer Institute, National Institute of Health, Bethesda, Maryland […] 5; Detector; 425V; Luminescence; Viewlux PerkinElmer. […] 1. […] Briefly, the corresponding myeloma cell lines were screened in 1,536-well plates with 500 cells, 5-uL per well for inhibition of cell viability (assessed by measuring ATP levels with CellTiterGlo). […]
Results filed as inconclusive are left out. Activity calls are given as the source filed them. The call rests on the fitted dose curve; in most records, active means well fitted cell-killing curve with a large enough effect; inconclusive means small, poorly fitted or top-dose-only effect, or effect the other way; inactive means no such curve, though single readings can be large or run the other way.
Labels: T (active), F (inactive)

Molecule | Label value
Cc1c(O)cccc1C(=O)N[C@@H](CSc1ccccc1)[C@H](O)CN1C[C@H]2CCCC[C@@H]2C[C@@H]1C(=O)NC(C)(C)C | T
O=C(O)C=Cc1ccc(O)c(O)c1 | T
O=C(CCCCCCC(=O)Nc1ccccc1)NO | T
CN[C@@H](C)C(=O)N[C@H]1CN(C(=O)CC(C)C)CC[C@H]2CC[C@@H](C(=O)NC(c3ccccc3)c3ccccc3)N2C1=O | T
CN1C[C@H]2c3ccccc3Oc3ccc(Cl)cc3[C@@H]2C1 | F
CCc1ccc(OCc2ccccc2C(=O)Nc2ccc3nc(C)cc(N)c3c2)cc1 | T
O=C1NC(=O)C(=Cc2ccc3nccnc3c2)S1 | T
NS(=O)(=O)c1cccc2c1C(=O)c1cccc(O)c1C2=O | T
CCn1cc(C(=O)O)c(=O)c2ccc(C)nc21 | F
C[C@H]1[C@H](NC(=O)C(=NOC(C)(C)C(=O)O)c2csc(N)n2)C(=O)N1S(=O)(=O)O | F
COC(=O)C1=CO[C@@H](O)[C@@H]2C(CO)=CC[C@@H]12 | T
CON=C(C(=O)N[C@@H]1C(=O)N2C(C(=O)OCOC(=O)C(C)(C)C)=C(C=Cc3scnc3C)CS[C@H]12)c1csc(N)n1 | T
O=C(O)c1c(Cl)c(Cl)c(Cl)c(Cl)c1-c1c2cc(I)c(=O)c(I)c-2oc2c(I)c(O)c(I)cc12 | T
CN(C[C@@H]1COCCO1)S(=O)(=O)Nc1ccc2ccc3ncc(-c4cnn(C)c4)cc3c(=O)c2c1 | T
CC=CCC=CCCC(=O)[C@H]1O[C@@H]1C(N)=O | T
OC[C@H]1O[C@@H](n2cnc3c2NC=NC[C@@H]3O)C[C@H]1O | F
Nc1ncnc2c1nc(Cl)n2[C@@H]1O[C@H](CO)[C@@H](O)[C@@H]1O | T
N#CC(=C(N)Sc1ccccc1N)C(C#N)=C(N)Sc1ccccc1N | T
CCOC1OC(=O)C[C@H]1NC(=O)[C@@H]1CCCN1C(=O)[C@@H](NC(=O)c1ccc(N)c(Cl)c1)C(C)(C)C (some centres not stated) | F
CC#CCn1c(N2CCC[C@@H](N)C2)nc2c1c(=O)n(Cc1nc(C)c3ccccc3n1)c(=O)n2C | F
COc1ccc(C2CC(c3ccccc3)=NN2c2ccc(S(N)(=O)=O)cc2)cc1 (configuration not stated) | T
NC1CCC(Nc2nc(Nc3ccc(C(=O)N4CCCCC4)cc3)c3ncn(-c4cccc(F)c4)c3n2)CC1 (configuration not stated) | F
O=c1cc(-c2cccc3c2Sc2ccccc2S3)oc(N2CCOCC2)c1 | T
CCN(CC)CCOc1ccc(C(=C(Cl)c2ccccc2)c2ccccc2)cc1 | F
CC(=O)Nc1ccc([C@H](C)C(=O)Nc2ncc(C(C)C)s2)cc1 | T
COc1cc(NC(=O)c2ccc(-c3ccc(Cl)cc3)o2)cc(OC)c1 | F
CC[C@@]1(O)C[C@H](O[C@H]2C[C@H](N(C)C)[C@H](O[C@H]3C[C@H](O)[C@H](O[C@H]4CCC(=O)[C@H](C)O4)[C@H](C)O3)[C@H](C)O2)c2c(cc3c(c2O)C(=O)c2c(O)cccc2C3=O)[C@@H]1C(=O)OC | T

====

Experimental details: High Content Imaging Cell-Based qHTS for Inhibitors of the mTORC1 Signaling Pathway in MEF (Tsc2-/-, p53-/-) Cells (AID 2666);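 further: percent of cells scored positive for phospho-rpS6 Ser235/236 immunostaining by imaging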
Experimental setup: series mostly up to 38.3 µM
Results filed as inconclusive are left out. Activity calls are given as the source filed them. The call rests on the fitted dose curve; in most records, active means well fitted inhibition curve with a large enough effect; inconclusive means small, poorly fitted or top-dose-only effect; inactive means flat fitted curve, though single readings scatter.
Outcome codes: 1.0 (active), 0.0 (inactive)

Compound | Label value
CCN(CC)CCOC(=O)c1ccc(N)cc1 | 0.0
CC(C)(C)c1ccc(C(O)CCCN2CCC(C(O)(c3ccccc3)c3ccccc3)CC2)cc1 (stereo unspecified) | 1.0
CCCNC(=O)NS(=O)(=O)c1ccc(Cl)cc1 | 0.0
O=c1cc(-c2ccc(O)cc2)oc2cc(O)cc(O)c12 | 0.0
CN(C)CCC(c1ccccc1)c1ccccn1 (stereo unspecified) | 0.0
COC(=O)[C@@H]1[C@H]2C[C@H]3c4[nH]c5ccccc5c4CCN3C[C@@H]2CC[C@@H]1O | 0.0

====

Experimental details: Quantitative High-Throughput drug screen in 47 multiple myeloma cell lines against the NCATS MIPE library collection: XG6_PLB cell viability assay (AID 1919865); further: nearly all actives have a fitted effect of over 40% in size
Experimental setup: XG6 myeloma viability, CellTiter-Glo ATP luminescence, 48 h; series mostly up to 45.8 µM
Results filed as inconclusive are left out. Active and inactive are the calls of the source. The call rests on the fitted dose curve; in most records, active means well fitted cell-killing curve with a large enough effect; inconclusive means small, poorly fitted or top-dose-only effect, or effect the other way; inactive means no such curve, though single readings can be large or run the other way.
Outcome codes: 1 = active, -1 = inactive

Compound | Label value
CC1(C)CCC[C@@]2(C)[C@@H]1CC[C@@]1(C)OC(=O)C[C@H]21 | -1
CC(C)n1cnc2c(NCCCCCCNC(=O)OC(C)(C)C)nc(NCCO)nc21 | 1
O=C1c2ccccc2-[n+]2ccc3c([nH]c4ccccc43)c21 | 1
COc1ccc2c(Oc3ccc(NC(=O)c4c(C)n(CC(C)(C)O)n(-c5ccccc5)c4=O)cc3F)ccnc2c1 | 1
COc1ccc2cccc(CCNC(C)=O)c2c1 | -1
COc1cc2nc(-c3ccc(N4CCN(C)CC4)cc3)nc(NCCN3CCOCC3)c2cc1OC | 1
COc1ccc(-c2oc3c(CC=C(C)C)c(OC4O[C@H](CO)[C@@H](O)[C@H](O)[C@@H]4O)cc(O)c3c(=O)c2OC2O[C@@H](C)[C@H](O)[C@@H](O)[C@@H]2O)cc1 (some centres undefined) | 1
CC(=O)Oc1cc2c(s1)CCN(C(C(=O)C1CC1)c1ccccc1F)C2 (centres undefined) | 1
O=C(NC1CCOCC1)c1ccc(-c2cc(-c3cn[nH]c3-c3ccccn3)ccn2)cc1 | -1
COC(=O)N[C@H](C(=O)N1CCC[C@@H]1c1ncc(-c2ccc(-c3ccc(-c4cnc([C@@H]5CCCN5C(=O)[C@@H](NC(=O)OC)C(C)C)[nH]4)cc3)cc2)[nH]1)C(C)C | 1
O=C(O)[C@H]1O[C@H](Oc2cc3oc(-c4ccccc4)cc(=O)c3c(O)c2O)[C@H](O)[C@@H](O)[C@H]1O | -1
CC(=Cc1ccccc1)C=C1SC(=S)N(CC(=O)O)C1=O | -1
COc1ccc(-c2coc3cc(O)ccc3c2=O)cc1 | -1
c1ccc2c(Cc3c[nH]c4ccccc34)c[nH]c2c1 | 1
COCCOc1nc(-c2ccc(Cl)c(Cl)c2)n(-c2ccc(NC(=O)CCl)cc2)n1 | 1
CCOC(=O)O[C@]1(C(=O)OCCl)CC[C@@H]2[C@H]3CCC4=CC(=O)C=C[C@]4(C)[C@@H]3[C@@H](O)C[C@@]21C | -1
CCc1ccc(OCc2ccccc2C(=O)Nc2ccc3nc(C)cc(N)c3c2)cc1 | 1
O=C(Nc1cccc(Br)c1)c1cccc(S(=O)(=O)N2CCCCCC2)c1 | 1
Cc1ccccc1C(C(=O)NC1CCCCC1)N(C(=O)Cn1ccnc1C)c1cccc(F)c1 (centres undefined) | -1
CC(C)C[C@H](CC(=O)O)C(=O)N[C@@H](Cc1c[nH]c2ccccc12)C(=O)N[C@@H](C)c1ccccc1 | -1
NC1=N[C@@]2(c3cc(NC(=O)c4ccc(F)cn4)ccc3F)COC[C@@H]2CS1 | 1
NC(=O)c1cccc(-c2cc(Nc3ccc(OC(F)(F)F)cc3)ncn2)c1 | 1
CC(C)(Cc1ccc2ccccc2c1)NC[C@@H](O)COc1cccc(Cl)c1C#N | -1
N[C@H](CSC(c1ccccc1)(c1ccccc1)c1ccccc1)C(=O)O | 1
CO[C@H]1C[C@@H]2CC[C@@H](C)[C@@](O)(O2)C(=O)C(=O)N2CCCC[C@@H]2C(=O)O[C@H]([C@@H](C)C[C@@H]2CC[C@H](O)[C@H](OC)C2)CC(=O)[C@H](C)C=C(C)[C@@H](O)[C@@H](OC)C(=O)[C@H](C)C[C@H](C)C=CC=CC=C1C | -1
CO[C@H]1C=CC=C(C)C(=O)NC2=CC(=O)C(NCCN(C)C)=C(C[C@@H](C)C[C@H](OC)[C@@H](O)[C@@H](C)C=C(C)[C@@H]1OC(N)=O)C2=O | 1
O=C1C[C@@H](c2ccc(O)cc2)Oc2cc(O)cc(O)c21 | -1
Clc1ccc(CCC(Cn2ccnc2)Sc2c(Cl)cccc2Cl)cc1 (centres undefined) | 1
COC1CCC(N(C(=O)C2CCC(C)CC2)c2cc(C3=CCCCC3)sc2C(=O)O)CC1 (centres undefined) | 1
